TEST: inhibition of 3D7 malaria parasite growth – strain 3D7 (AID 2306);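 note: 0% = DMSO wells and 100% = chloroquine plus artemisinin control wells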
RUN PARAMETERS: P. falciparum 3D7 erythrocytic growth, LDH absorbance, 72 h; at 2 µM; active compounds read high
Active and inactive are the calls of the source. The rule behind the calls is not given here.
Listed below: growth inhibition values for each entry.
ASSAY ENDPOINT: growth inhibition

> print(dat)
                                smiles.data     assay.endpoint  endpoint.value
1  CCn1c(-c2nonc2N)nc2c(C#CC(C)(C)O)ncc(OCCNCCc3ccc(OC)cc3)c21  growth inhibition    91% (active)
2  COc1nc2c(CCN3CC[C@H](NCc4ccc5c(c4)NC(=O)CO5)[C@H](O)C3)c(Cl)cnc2cc1F  growth inhibition    90% (active)
3  CCOc1c(CNCCCNc2cc(=O)c3ccccc3[nH]2)cc(I)cc1OC  growth inhibition    91% (active)
